B1: CPEB3 Ribozyme (parent)
chain: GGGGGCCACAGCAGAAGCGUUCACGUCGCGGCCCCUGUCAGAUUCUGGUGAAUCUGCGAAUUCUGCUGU

Variants of: B1
Assay: self-cleavage, relative activity (ratio to wild type); higher = more cleavage; co-transcriptional
QUANTITY KIND: self-cleavage
No unit in the answer, only the number.

Sample records with self-cleavage:
Q: Please report the recorded self-cleavage for G19A G65U .
A: 0.159

Q: Please give the measured self-cleavage for this variant: G2U U36A
A: 0.023

Q: // lookup self-cleavage for U21G U61C
A: 0.214

Q: self-cleavage lookup needed for A16G C63A , thanks.
A: 0.648

Q: Item G11U U53C has what recorded self-cleavage?
A: 0.329

Further cases:
Q: For A42U G50C , what is its reported self-cleavage?
A: 0.809

Q: What self-cleavage value was documented for this variant, C24U ?
A: 0.844
